Target: HCV NS5B (Hepatitis C virus genotype 1b)
Construct: fusion protein, of which the carboxyl terminal 21 amino acids were removed to enhance its solubility; His tag (GSHHHHHH); made in house; host or cells: E. coli
Assay: Inhibition of viral RNA-dependent RNA polymerase (RdRp), in vitro biochemical assay
Set-up: species or system HCV genotype 1b virus (BB7)
Conditions: HCV NS5B RdRp, BB7; class symbols A-D; read-out: HCV pol-BB7 IC50
IC50 values, listed per item

[[record]]
compound = "CNC(=O)c1c(-c2ccc(F)cc2)oc2cc(-c3c(C)nn(C)c3C)c(OC(C)C)cc12 [Example 264]"
test_target = "HCV NS5B (Hepatitis C virus genotype 1b)"
recorded_result = "500 to 5000 nM"

[[record]]
compound = "CNC(=O)c1c(-c2ccc(F)cc2)oc2cc(C#N)c(OC)cc12 [Example 266]"
test_target = "HCV NS5B (Hepatitis C virus genotype 1b)"
recorded_result = "≤ 500 nM"

[[record]]
compound = "CNC(=O)c1c(-c2ccc(F)cc2)oc2cc(-c3ncnn3C)c(OC)cc12 [Example 323]"
test_target = "HCV NS5B (Hepatitis C virus genotype 1b)"
recorded_result = "≤ 500 nM"

[[record]]
compound = "CNC(=O)c1c(-c2ccc(F)cc2)oc2cc(N(Cc3nccs3)S(C)(=O)=O)c(OC(C)C)cc12 [Example 285]"
test_target = "HCV NS5B (Hepatitis C virus genotype 1b)"
recorded_result = "≤ 500 nM"

[[record]]
compound = "CNC(=O)c1c(-c2ccc(F)cc2)oc2cc(C(C)NC)c(OC)cc12 (centres unmarked) [Example 304]"
test_target = "HCV NS5B (Hepatitis C virus genotype 1b)"
recorded_result = "500 to 5000 nM"

[[record]]
compound = "CNC(=O)c1c(-c2ccc(F)cc2)oc2cc(N(Cc3ccc(C(=O)O)cc3)S(C)(=O)=O)c(OC(C)C)cc12 [Example 272]"
test_target = "HCV NS5B (Hepatitis C virus genotype 1b)"
recorded_result = "≤ 500 nM"

[[record]]
compound = "CNC(=O)c1c(-c2ccc(F)cc2)oc2cc(N(Cc3ccc(C(=O)OC)cc3)S(C)(=O)=O)c(OC(C)C)cc12 [Example 270]"
test_target = "HCV NS5B (Hepatitis C virus genotype 1b)"
recorded_result = "≤ 500 nM"


Which measured IC50 value corresponds to CCOc1cc(F)ccc1-c1oc2cc(-c3c(C)noc3C)c(OC)cc2c1C(=O)NC [Example 318] ?
≤ 500 nM

###

# Lookup of reported EC50 keyed by entry
Test system: HCV replicon (BB7 sequence) in Huh-7-Clone A cells
Test: HCV replicon assay: ELISA of NS5A protein in replicon-containing cells (Inhibition of Viral RNA Replication)
Format: cell-based
Details: Hepatitis C virus; HCV replicon assay; ranges of EC50; read-out: Replicon

[[record]]
compound = "CCNc1cc2oc(-c3ccc(F)cc3)c(C(=O)NC)c2c(Cl)c1O"
endpoint_name = "EC50"
recorded_result = "> 100000 nM"

[[record]]
compound = "CNC(=O)c1c(-c2ccc(F)cc2)oc2cc(N(C)S(C)(=O)=O)c(O)cc12"
endpoint_name = "EC50"
recorded_result = "< 10000 nM"

[[record]]
compound = "CNC(=O)c1c(-c2ccc(F)cc2)oc2cc(C#N)c(OC)cc12"
endpoint_name = "EC50"
recorded_result = "< 1000 nM"

[[record]]
compound = "CCCOc1cc2c(C(=O)NC)c(-c3ccc(F)cc3)oc2cc1N(C)S(C)(=O)=O"
endpoint_name = "EC50"
recorded_result = "< 1000 nM"

[[record]]
compound = "CNC(=O)c1c(-c2ccc(F)cc2)oc2cc(C3CCCN3C(=O)NC)c(OC)cc12 (centres unmarked)"
endpoint_name = "EC50"
recorded_result = "< 10000 nM"

[[record]]
compound = "CCCOc1cc2c(C(=O)NC)c(-c3ccc(F)cc3)oc2cc1N(CCC)S(C)(=O)=O"
endpoint_name = "EC50"
recorded_result = "< 1000 nM"


# returns recorded EC50 (system: HCV replicon (BB7 sequence) in Huh-7-Clone A cells) for CNC(=O)c1c(-c2ccc(F)cc2)oc2cc(C3CCCN3S(C)(=O)=O)c(OC(C)C)cc12 (centres unmarked)
< 1000 nM

Next compound: C=CCOc1cc2c(C(=O)NC)c(-c3ccc(F)cc3)oc2cc1N(C)S(C)(=O)=O
< 1000 nM

###

Target: HCV NS5B (Hepatitis C virus genotype 1b)
Construct: fusion protein, of which the carboxyl terminal 21 amino acids were removed to enhance its solubility; His tag (GSHHHHHH); made in house; host or cells: E. coli
Assay: Inhibition of viral RNA-dependent RNA polymerase (RdRp), in vitro biochemical assay
Parameters: species or system HCV genotype 1b virus (BB7)
Details: HCV NS5B RdRp, BB7; activity class; read-out: HCV pol-BB7 IC50
pIC50: −log10 of the molar value.
In this section we review reported pIC50 values for a set of molecules.

Study these solved cases before continuing.
[[record]]
molecule = "COc1cc2c(C(=O)NC(C)C)c(-c3ccc(F)cc3)oc2cc1-c1c(C)noc1C [Example 379]"
test_target = "HCV NS5B (Hepatitis C virus genotype 1b)"
recorded_result = "5.30 to 6.30"

[[record]]
molecule = "CCCOc1cc2c(C(=O)NC)c(-c3ccc(F)cc3)oc2cc1N(C)S(C)(=O)=O [Example 348]"
test_target = "HCV NS5B (Hepatitis C virus genotype 1b)"
recorded_result = "≥ 6.30"

[[record]]
molecule = "CNC(=O)c1c(-c2ccc(F)cc2)oc2cc(N(C)S(C)(=O)=O)c(OCc3ccc(S(C)(=O)=O)cc3)cc12 [Example 353]"
test_target = "HCV NS5B (Hepatitis C virus genotype 1b)"
recorded_result = "≥ 6.30"

[[record]]
molecule = "CCNc1cc2oc(-c3ccc(F)cc3)c(C(=O)NC)c2c(Cl)c1O [Example 341]"
test_target = "HCV NS5B (Hepatitis C virus genotype 1b)"
recorded_result = "5.30 to 6.30"


Proceeding to the next molecule to report its pIC50.
Recall the recorded pIC50 for CNC(=O)c1c(-c2ccc(F)cc2)oc2cc(-c3cc(COC(C)C)on3)c(OC)cc12 [Example 372] with HCV NS5B (Hepatitis C virus genotype 1b) and state it.
≥ 6.30

###

System: HCV replicon (BB7 sequence) in Huh-7-Clone A cells
Assay: HCV replicon assay: ELISA of NS5A protein in replicon-containing cells (Inhibition of Viral RNA Replication)
Type: cell-based
Conditions: Hepatitis C virus; HCV replicon assay; ranges of EC50; read-out: Replicon
Description: Antiviral activity of representative compounds of the invention was first evaluated in a human liver-derived cell line (Huh-7-Clone A) containing the HCV replicon (BB7 sequence) (See Lohmann et al. Science. 1999, 285:110-3; Blight K J et al., Science. 2000, 290:1972-4; Pietschmann, T. et al., J. Virol. 2001, 73:1252-1264; and Lohmann, V. et al., J. Virol. 2001, 75:1437-1449). The HCV replicon is a subgenomic viral RNA that expresses the HCV proteins required for its own replication. […]
pEC50: −log10 of the molar value.
endpoint_name: pEC50

[[record]]
compound = "CNC(=O)c1c(-c2ccc(F)cc2)oc2cc(N(C)S(C)(=O)=O)c(OCc3ccc(C#N)cc3)cc12"
recorded_result = "> 6.00"

[[record]]
compound = "CNC(=O)c1c(-c2ccc(F)cc2)oc2cc(N(C)S(C)(=O)=O)c(OCC(C)O)cc12 (stereo not shown)"
recorded_result = "> 6.00"

[[record]]
compound = "CCN(c1cc2oc(-c3ccc(F)cc3)c(C(=O)NC)c2cc1OC)S(C)(=O)=O"
recorded_result = "> 6.00"

[[record]]
compound = "CNC(=O)c1c(-c2ccc(F)cc2)oc2cc(C(C)N(C)S(C)(=O)=O)c(OC)cc12 (stereo not shown)"
recorded_result = "> 6.00"

[[record]]
compound = "CNC(=O)c1c(-c2ccc(F)cc2)oc2cc(-c3ncnn3C)c(OC)cc12"
recorded_result = "> 6.00"

[[record]]
compound = "CNC(=O)c1c(-c2ccc(F)cc2)oc2cc(C(C)(O)CN)c(OC(C)C)cc12 (stereo not shown)"
recorded_result = "> 4.52"

[[record]]
compound = "CNC(=O)c1c(-c2ccc(F)cc2)oc2cc(N(Cc3ccc(C(=O)O)cc3)S(C)(=O)=O)c(OC(C)C)cc12"
recorded_result = "≥ 6.00"

[[record]]
compound = "CCNc1cc2oc(-c3ccc(F)cc3)c(C(=O)NC)c2c(Cl)c1OS(C)(=O)=O"
recorded_result = "> 5.00"

[[record]]
compound = "CCNc1cc2oc(-c3ccc(F)cc3)c(C(=O)NC)c2cc1O"
recorded_result = "< 4.52"

[[record]]
compound = "CNC(=O)c1c(-c2ccc(F)cc2)oc2cc(N(Cc3nc(C(=O)O)cs3)S(C)(=O)=O)c(OC(C)C)cc12"
recorded_result = "< 4.00"


Pending compound:
Record lookup: for HCV replicon (BB7 sequence) in Huh-7-Clone A cells, what pEC50 belongs to CNC(=O)c1c(-c2ccc(F)cc2)oc2cc(N(C)S(C)(=O)=O)c(OCc3c(C)noc3C)cc12 ?
> 6.00
